Where do the numbers come from? From ChEMBL document CHEMBL3817824.

target: Protein kinase C zeta type (Homo sapiens, UniProt Q05513)
Sequence (Q05513 whole entry): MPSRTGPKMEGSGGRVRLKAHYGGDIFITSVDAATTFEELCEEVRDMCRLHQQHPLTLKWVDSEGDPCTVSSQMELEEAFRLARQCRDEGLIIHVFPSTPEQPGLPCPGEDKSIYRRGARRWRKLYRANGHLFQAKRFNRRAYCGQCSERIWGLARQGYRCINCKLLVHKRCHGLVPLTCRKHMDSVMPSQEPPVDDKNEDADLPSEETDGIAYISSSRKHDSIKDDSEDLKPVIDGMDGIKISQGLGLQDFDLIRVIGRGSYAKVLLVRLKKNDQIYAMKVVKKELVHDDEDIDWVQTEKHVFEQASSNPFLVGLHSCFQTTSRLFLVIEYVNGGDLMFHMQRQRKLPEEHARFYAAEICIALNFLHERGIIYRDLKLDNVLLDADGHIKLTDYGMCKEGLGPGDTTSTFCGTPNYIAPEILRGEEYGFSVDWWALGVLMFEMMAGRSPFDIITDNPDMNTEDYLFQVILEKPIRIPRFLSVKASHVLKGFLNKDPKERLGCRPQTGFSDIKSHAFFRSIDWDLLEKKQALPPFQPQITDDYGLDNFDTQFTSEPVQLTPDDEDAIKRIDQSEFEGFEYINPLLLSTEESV
pIC50: −log10 of the molar value.
outcomeMeasure: pIC50

pIC50 in this record for CN1C(=O)COc2c1cnc1ccc(Sc3nnc4c(F)cc(-c5cnn(C)c5)cn34)cc21 : < 4.52

----------
target: Mast/stem cell growth factor receptor Kit (Homo sapiens, UniProt P10721)
Sequence (P10721 whole entry): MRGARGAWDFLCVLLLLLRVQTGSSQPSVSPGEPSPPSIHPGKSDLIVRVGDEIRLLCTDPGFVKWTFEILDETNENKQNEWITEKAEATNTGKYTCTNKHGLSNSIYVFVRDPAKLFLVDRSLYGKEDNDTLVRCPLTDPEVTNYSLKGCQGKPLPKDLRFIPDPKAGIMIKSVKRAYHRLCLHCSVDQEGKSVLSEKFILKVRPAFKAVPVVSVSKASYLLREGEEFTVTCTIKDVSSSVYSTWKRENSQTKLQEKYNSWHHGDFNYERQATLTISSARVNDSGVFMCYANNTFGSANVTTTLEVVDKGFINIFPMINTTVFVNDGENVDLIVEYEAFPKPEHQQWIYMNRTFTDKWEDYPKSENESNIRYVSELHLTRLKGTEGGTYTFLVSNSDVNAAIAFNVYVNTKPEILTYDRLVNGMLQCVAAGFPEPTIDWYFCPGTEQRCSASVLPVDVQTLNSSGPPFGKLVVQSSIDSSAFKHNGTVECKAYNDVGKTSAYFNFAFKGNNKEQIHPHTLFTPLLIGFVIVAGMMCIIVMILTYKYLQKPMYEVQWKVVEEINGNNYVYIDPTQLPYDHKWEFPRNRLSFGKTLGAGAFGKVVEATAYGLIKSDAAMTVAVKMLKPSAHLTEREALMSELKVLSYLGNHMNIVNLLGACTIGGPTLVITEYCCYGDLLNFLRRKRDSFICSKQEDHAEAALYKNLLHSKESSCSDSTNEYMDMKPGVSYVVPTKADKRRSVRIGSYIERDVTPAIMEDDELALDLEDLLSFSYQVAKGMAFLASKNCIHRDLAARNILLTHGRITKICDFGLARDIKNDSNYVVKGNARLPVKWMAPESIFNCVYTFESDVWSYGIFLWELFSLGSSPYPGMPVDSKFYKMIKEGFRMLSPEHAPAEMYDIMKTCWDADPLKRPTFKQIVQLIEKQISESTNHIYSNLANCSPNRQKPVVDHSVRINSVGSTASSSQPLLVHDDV
outcomeMeasure: IC50

Assay Mast/stem cell growth factor receptor Kit (Homo sapiens, UniProt P10721), sample CN1C(=O)COc2c1cnc1ccc(Sc3nnc4c(F)cc(-c5cnn(C)c5)cn34)cc21 [DALMELITINIB] , IC50 read: > 30 µM

----------
molecular target: Tyrosine-protein kinase Fyn (Homo sapiens, UniProt P06241)
Sequence (P06241 whole entry): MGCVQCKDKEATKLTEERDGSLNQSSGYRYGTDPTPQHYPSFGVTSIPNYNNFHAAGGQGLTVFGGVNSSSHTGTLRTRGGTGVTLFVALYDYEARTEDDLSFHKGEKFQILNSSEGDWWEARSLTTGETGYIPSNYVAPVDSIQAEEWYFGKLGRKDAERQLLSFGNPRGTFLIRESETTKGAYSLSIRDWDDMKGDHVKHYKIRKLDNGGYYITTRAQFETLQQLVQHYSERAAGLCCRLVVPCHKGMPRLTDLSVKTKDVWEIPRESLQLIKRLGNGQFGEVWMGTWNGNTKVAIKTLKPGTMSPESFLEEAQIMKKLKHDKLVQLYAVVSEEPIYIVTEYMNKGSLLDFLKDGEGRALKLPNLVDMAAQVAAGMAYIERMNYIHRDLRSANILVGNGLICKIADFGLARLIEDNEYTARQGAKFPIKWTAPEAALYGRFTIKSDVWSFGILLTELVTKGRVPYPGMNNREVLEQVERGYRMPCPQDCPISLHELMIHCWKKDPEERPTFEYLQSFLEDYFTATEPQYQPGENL
outcomeMeasure: IC50 (µM)
Supply the numeric figure in µM, leaving out any unit text.

IC50 in this record for CN1C(=O)COc2c1cnc1ccc(Sc3nnc4c(F)cc(-c5cnn(C)c5)cn34)cc21 [DALMELITINIB] : 11.2

----------
target: Serine/threonine-protein kinase N1 (Homo sapiens)
Sequence (Q16512 whole entry): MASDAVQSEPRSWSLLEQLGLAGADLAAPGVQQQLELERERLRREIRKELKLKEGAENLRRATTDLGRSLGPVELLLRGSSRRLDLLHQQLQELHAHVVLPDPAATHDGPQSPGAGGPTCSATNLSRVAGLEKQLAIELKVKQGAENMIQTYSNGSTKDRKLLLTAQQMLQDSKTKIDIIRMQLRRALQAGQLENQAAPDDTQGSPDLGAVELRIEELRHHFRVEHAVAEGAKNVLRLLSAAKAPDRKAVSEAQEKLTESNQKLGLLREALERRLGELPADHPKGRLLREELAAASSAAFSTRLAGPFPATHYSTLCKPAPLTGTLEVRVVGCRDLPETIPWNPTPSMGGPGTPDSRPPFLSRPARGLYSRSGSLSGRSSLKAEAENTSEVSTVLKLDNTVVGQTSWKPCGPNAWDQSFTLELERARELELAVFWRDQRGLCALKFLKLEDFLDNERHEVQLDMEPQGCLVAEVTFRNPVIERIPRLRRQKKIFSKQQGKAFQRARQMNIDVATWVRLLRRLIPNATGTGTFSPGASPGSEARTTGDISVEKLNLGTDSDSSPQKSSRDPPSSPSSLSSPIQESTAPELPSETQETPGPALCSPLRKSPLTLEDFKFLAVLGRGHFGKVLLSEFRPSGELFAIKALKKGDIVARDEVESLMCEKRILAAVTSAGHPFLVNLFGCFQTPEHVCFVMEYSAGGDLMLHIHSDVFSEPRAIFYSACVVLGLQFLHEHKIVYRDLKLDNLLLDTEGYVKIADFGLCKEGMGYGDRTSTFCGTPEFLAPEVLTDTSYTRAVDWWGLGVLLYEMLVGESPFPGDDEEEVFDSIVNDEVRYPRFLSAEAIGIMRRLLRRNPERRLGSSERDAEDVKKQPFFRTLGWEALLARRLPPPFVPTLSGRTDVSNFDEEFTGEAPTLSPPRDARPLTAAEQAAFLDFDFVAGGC
pIC50: −log10 of the molar value.
outcomeMeasure: pIC50

Assay Serine/threonine-protein kinase N1 (Homo sapiens), sample CN1C(=O)COc2c1cnc1ccc(Sc3nnc4c(F)cc(-c5cnn(C)c5)cn34)cc21 [DALMELITINIB] , pIC50 read: < 4.52

----------
target: Fibroblast growth factor receptor 4 (Homo sapiens)
Sequence (P22455 whole entry): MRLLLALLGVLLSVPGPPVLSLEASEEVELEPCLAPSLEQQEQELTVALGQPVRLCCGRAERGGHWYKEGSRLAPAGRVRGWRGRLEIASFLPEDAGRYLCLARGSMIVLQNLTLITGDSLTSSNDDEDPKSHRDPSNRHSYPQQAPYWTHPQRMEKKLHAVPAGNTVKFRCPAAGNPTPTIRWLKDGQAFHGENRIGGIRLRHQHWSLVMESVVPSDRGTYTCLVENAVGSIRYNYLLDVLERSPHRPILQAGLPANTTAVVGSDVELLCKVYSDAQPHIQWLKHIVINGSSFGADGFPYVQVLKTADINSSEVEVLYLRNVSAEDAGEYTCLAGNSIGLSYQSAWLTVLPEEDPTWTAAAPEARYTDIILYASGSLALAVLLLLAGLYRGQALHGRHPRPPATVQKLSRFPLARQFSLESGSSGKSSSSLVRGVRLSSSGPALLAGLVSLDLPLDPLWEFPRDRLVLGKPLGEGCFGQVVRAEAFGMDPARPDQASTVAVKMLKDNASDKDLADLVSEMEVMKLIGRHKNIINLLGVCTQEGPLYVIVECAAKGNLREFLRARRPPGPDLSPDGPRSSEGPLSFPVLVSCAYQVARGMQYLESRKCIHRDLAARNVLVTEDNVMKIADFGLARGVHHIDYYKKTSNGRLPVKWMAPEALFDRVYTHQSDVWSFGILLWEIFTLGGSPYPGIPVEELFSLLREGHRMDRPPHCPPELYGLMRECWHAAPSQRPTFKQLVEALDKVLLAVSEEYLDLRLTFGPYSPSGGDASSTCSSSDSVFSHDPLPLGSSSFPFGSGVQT
outcomeMeasure: IC50

IC50 in this record for CN1C(=O)COc2c1cnc1ccc(Sc3nnc4c(F)cc(-c5cnn(C)c5)cn34)cc21 : > 30 µM

----------
molecular target: Epidermal growth factor receptor (Homo sapiens, UniProt P00533, T790M); assay: Inhibition of EGFR T790M mutant (unknown origin) incubated for 1 hr by spectrophotometric analysis
Sequence (P00533 25-1210 T790M limits assumed): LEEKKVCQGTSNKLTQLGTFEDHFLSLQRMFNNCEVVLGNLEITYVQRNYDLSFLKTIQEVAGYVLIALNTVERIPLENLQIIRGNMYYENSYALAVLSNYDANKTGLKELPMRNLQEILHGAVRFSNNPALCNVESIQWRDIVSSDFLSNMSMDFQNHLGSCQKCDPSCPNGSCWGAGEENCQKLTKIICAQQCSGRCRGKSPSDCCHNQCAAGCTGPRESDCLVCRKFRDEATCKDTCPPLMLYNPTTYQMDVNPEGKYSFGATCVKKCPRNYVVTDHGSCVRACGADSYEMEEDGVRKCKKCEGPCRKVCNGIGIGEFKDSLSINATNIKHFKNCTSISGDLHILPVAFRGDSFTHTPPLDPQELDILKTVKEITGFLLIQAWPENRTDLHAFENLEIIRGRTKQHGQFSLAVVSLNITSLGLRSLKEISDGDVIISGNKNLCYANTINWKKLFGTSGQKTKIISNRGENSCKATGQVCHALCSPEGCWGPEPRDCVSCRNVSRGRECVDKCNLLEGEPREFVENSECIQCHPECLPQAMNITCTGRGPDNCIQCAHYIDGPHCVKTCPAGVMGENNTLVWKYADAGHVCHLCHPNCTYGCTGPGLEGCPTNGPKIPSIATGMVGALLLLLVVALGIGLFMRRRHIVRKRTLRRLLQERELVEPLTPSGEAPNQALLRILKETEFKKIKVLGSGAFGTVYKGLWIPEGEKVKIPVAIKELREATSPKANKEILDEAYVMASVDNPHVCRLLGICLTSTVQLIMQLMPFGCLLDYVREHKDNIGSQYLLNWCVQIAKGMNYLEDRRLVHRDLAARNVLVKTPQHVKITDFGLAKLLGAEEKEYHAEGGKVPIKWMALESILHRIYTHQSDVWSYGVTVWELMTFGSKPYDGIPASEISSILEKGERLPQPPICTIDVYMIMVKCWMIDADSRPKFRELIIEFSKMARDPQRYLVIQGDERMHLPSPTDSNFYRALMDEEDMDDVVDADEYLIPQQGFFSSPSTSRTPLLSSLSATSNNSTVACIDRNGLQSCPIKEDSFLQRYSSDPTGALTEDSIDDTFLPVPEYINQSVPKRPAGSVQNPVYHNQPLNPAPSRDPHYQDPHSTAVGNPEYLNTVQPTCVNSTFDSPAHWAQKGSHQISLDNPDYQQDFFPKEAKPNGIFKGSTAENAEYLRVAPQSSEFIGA
pIC50: −log10 of the molar value.
outcomeMeasure: pIC50

pIC50 in this record for CN1C(=O)COc2c1cnc1ccc(Sc3nnc4c(F)cc(-c5cnn(C)c5)cn34)cc21 : < 4.52

----------
biological target: Epidermal growth factor receptor (Homo sapiens, UniProt P00533, L858R); assay: Inhibition of EGFR L858R mutant (unknown origin) incubated for 1 hr by spectrophotometric analysis
outcomeMeasure: IC50

IC50 in this record for CN1C(=O)COc2c1cnc1ccc(Sc3nnc4c(F)cc(-c5cnn(C)c5)cn34)cc21 : > 30 µM

----------
target: Ephrin type-A receptor 2 (Homo sapiens, UniProt P29317)
outcomeMeasure: IC50

Assay Ephrin type-A receptor 2 (Homo sapiens, UniProt P29317), sample CN1C(=O)COc2c1cnc1ccc(Sc3nnc4c(F)cc(-c5cnn(C)c5)cn34)cc21 , IC50 read: > 30 µM

----------
molecular target: Receptor tyrosine-protein kinase erbB-2 (Homo sapiens, UniProt P04626); experiment: Inhibition of HER2 (unknown origin) incubated for 1 hr by spectrophotometric analysis
outcomeMeasure: IC50

Assay Receptor tyrosine-protein kinase erbB-2 (Homo sapiens, UniProt P04626), sample CN1C(=O)COc2c1cnc1ccc(Sc3nnc4c(F)cc(-c5cnn(C)c5)cn34)cc21 , IC50 read: > 30 µM

----------
target: Leukocyte tyrosine kinase receptor (Homo sapiens, UniProt P29376)
pIC50: −log10 of the molar value.
outcomeMeasure: pIC50

pIC50 in this record for CN1C(=O)COc2c1cnc1ccc(Sc3nnc4c(F)cc(-c5cnn(C)c5)cn34)cc21 [DALMELITINIB] : < 4.52

----------
target: Platelet-derived growth factor receptor beta (Homo sapiens)
pIC50: −log10 of the molar value.
outcomeMeasure: pIC50

Assay Platelet-derived growth factor receptor beta (Homo sapiens), sample CN1C(=O)COc2c1cnc1ccc(Sc3nnc4c(F)cc(-c5cnn(C)c5)cn34)cc21 [DALMELITINIB] , pIC50 read: < 4.52
